system.tested: UniProt P45452
reported.metric: pKi
Would you please state pKi, meaning minus log10 of the concentration in mol/L, as a bare number?

Ask: // map NC(=O)[C@H](CCC(=O)O)NC(=O)c1ccc(-c2cc(-c3ccccc3)cs2)cc1 [Inhibitor, 16] to recorded pKi (system: UniProt P45452)
Result: 6.30

====

system.tested: 72 kDa type IV collagenase (Homo sapiens, UniProt P08253)
Sequence (P08253 whole entry): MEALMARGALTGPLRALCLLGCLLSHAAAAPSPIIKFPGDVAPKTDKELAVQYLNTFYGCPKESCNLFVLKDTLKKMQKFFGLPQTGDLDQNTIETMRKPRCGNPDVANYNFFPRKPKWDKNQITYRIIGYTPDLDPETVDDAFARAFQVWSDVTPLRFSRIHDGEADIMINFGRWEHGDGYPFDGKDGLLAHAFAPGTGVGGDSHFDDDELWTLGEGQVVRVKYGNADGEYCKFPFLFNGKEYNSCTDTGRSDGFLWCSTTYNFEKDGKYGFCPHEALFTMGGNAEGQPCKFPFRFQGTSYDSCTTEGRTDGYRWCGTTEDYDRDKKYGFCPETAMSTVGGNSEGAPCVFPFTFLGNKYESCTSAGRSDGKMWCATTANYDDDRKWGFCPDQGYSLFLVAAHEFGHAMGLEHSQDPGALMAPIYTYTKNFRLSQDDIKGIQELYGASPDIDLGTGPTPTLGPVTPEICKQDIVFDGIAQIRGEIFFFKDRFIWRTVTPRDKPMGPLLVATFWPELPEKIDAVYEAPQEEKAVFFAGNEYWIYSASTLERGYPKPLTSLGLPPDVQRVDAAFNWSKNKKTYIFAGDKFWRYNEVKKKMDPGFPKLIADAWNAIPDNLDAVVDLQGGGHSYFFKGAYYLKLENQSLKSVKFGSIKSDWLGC
reported.metric: pKi
Keep in mind that pKi stands for -log10 of concentration in molar terms.

Ask: What does the data say about its pKi? Entry: NC(=O)[C@H](CCC(=O)O)NC(=O)CCc1ccc(-c2ccc(-c3ccccc3)s2)cc1 [Inhibitor, 19]
Result: 6.23

====

system.tested: Stromelysin-1 (Homo sapiens, UniProt P08254)
Sequence (P08254 whole entry): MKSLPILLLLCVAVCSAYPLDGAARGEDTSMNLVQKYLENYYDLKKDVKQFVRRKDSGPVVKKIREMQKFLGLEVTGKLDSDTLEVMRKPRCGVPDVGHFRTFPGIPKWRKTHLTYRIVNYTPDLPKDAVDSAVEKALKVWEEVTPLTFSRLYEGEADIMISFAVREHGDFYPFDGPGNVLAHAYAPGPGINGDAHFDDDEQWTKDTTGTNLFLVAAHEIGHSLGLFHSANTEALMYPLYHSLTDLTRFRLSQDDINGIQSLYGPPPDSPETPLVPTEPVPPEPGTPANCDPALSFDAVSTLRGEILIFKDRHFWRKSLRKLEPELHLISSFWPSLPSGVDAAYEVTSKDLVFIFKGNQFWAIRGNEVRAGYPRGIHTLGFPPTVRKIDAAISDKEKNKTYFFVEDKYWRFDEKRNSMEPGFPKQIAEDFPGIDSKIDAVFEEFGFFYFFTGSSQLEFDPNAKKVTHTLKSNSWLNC
pIC50: −log10 of the molar value.
reported.metric: pIC50

Ask: Return pIC50 measured with Stromelysin-1 (Homo sapiens, UniProt P08254) given this compound: CC(C)C(NS(=O)(=O)c1ccc2c(c1)oc1ccc(N3CCOC3=O)cc12)C(=O)O (stereo unspecified)
Result: < 6.52

====

Entries with reported Ki on UniProt P08254
Express the result in nM but write the number alone.

Ask: Field: Ki (UniProt P08254). Entry: Cc1ccc(-c2ccc(CCC(=O)N[C@@H](CCC(=O)O)C(N)=O)cc2)s1 [Inhibitor, 17]
Result: 2160

Ask: Value wanted: Ki (UniProt P08254) of entry NC(=O)[C@H](CCC(=O)O)NC(=O)c1ccc(-c2cc(-c3ccccc3)cs2)cc1 [Inhibitor, 16]
Result: 5820

Ask: Ki of NC(=O)[C@H](CCC(=O)O)NC(=O)CCc1ccc(-c2cc(-c3ccccc3)cs2)cc1 [US8691753, 105] on UniProt P08254?
Result: 3000

====

system.tested: Neutrophil collagenase (Homo sapiens)
Sequence (P22894 whole entry): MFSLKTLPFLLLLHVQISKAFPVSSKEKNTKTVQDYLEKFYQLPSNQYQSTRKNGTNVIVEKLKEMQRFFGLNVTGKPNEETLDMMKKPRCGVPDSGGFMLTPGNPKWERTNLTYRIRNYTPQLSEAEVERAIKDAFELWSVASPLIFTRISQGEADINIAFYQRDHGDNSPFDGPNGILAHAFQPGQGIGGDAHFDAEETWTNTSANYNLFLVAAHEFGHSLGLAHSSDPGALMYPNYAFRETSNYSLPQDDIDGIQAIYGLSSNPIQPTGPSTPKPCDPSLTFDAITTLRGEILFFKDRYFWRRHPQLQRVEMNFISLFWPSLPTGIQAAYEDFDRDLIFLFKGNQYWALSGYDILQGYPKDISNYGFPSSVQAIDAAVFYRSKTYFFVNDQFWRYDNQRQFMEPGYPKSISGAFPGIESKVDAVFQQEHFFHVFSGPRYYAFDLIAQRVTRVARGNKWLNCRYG
test.protocol: Enzyme Assay
cond: pH 6.8; 25 °C
reported.metric: IC50

Ask: Field request: IC50 | item: CC(C)C(NS(=O)(=O)c1ccc2c(c1)oc1ccc(N3CCOC3=O)cc12)C(=O)O (stereo unspecified)
Result: 0.037 µM

====

system.tested: Stromelysin-2 (Homo sapiens, UniProt P09238)
Sequence (P09238 whole entry): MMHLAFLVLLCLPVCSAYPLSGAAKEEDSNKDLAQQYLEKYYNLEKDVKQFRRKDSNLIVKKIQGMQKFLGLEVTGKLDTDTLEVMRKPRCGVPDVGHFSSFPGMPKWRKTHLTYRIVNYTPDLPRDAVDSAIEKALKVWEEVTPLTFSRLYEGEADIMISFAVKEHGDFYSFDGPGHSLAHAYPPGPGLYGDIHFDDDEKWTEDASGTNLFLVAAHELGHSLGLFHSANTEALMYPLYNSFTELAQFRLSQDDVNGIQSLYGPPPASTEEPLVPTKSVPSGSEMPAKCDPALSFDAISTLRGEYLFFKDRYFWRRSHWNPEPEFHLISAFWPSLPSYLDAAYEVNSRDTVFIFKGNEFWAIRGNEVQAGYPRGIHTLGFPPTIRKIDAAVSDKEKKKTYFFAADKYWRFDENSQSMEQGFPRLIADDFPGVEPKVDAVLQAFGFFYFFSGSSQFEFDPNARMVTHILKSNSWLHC
Measured Ki, listed per entry.
Field: numeric (nM). Do not append units.

Please review the following examples before continuing.
NC(=O)[C@H](CCC(=O)O)NC(=O)CCc1ccc(-c2ccc(-c3ccccc3)s2)cc1 [Inhibitor, 19] = 352
Cc1ccc(-c2ccc(CCC(=O)N[C@@H](CCC(=O)O)C(N)=O)cc2)s1 [Inhibitor, 17] = 390
NC(=O)[C@H](CCC(=O)O)NC(=O)CCc1ccc(-c2cc(-c3ccccc3)cs2)cc1 [US8691753, 105] = 3110

# ---- query molecule ----
Ask: Identify the measured Ki of NC(=O)[C@@H](CCC(=O)O)NC(=O)[C@H](CCC(=O)O)NC(=O)C(Cc1cc(-c2ccc(-c3cccc(Cl)c3)cc2)no1)CP(=O)(O)c1ccc(Br)cc1 (some centres undefined) [RXP470, Compound 4] for Stromelysin-2 (Homo sapiens, UniProt P09238).
Result: 8

====

system.tested: Interstitial collagenase (Homo sapiens, UniProt P03956)
Sequence (P03956 whole entry): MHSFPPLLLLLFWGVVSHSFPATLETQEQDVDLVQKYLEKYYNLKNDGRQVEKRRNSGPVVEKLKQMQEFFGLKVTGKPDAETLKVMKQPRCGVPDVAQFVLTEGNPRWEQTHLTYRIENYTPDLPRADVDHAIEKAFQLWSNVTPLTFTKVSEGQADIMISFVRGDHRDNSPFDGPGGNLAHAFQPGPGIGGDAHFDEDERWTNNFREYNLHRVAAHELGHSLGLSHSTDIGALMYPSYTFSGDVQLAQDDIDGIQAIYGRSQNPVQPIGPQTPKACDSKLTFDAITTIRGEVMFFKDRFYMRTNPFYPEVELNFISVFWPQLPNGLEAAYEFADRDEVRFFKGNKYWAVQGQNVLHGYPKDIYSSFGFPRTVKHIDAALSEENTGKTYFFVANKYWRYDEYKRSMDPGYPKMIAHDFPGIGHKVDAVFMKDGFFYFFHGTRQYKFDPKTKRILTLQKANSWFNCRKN
reported.metric: Ki

Ask: State its Ki on Interstitial collagenase (Homo sapiens, UniProt P03956): NC(=O)[C@@H](CCC(=O)O)NC(=O)[C@H](CCC(=O)O)NC(=O)C(Cc1cc(-c2ccc(-c3cccc(Cl)c3)cc2)no1)CP(=O)(O)c1ccc(Br)cc1 (stereo partly specified)
Result: > 1000 nM
